organism: Homo sapiens; experiment: To identify inhibition of the IFN signalling (Jak-Stat) pathway via expression of an eGFP reporter gene under the control of an IFN-stimulated response element (ISRE) containing MxA promoter.; assay type: functional; parameters: scale not given: direction of the effect not stated beside the values; conditions: 30 µM
readout.name: Percent Effect (%)
Just the number please, in %, no unit attached.

Below are worked cases with known answers.
molecule	observed
CCc1nc2n(n1)CC(NCC(=O)Nc1cc(C)on1)CC2 (centres undefined)	22.4
O=C(NC1(c2cccc(F)c2)CCOCC1)c1ccoc1	-3.68
COc1cc(C(=O)N(Cc2cnn(C)c2)C(C)C)ccc1OCC(N)=O	9.36

Look up Percent Effect for this molecule: CNc1cncc(C2CCCN(S(C)(=O)=O)C2)n1 (centres undefined)
23.6

Field entry: `COCCN1C(=O)CO[C@H]2CN(Cc3c[nH]nc3-c3ccccc3)C[C@@H]21`
19.6

Field entry: `CCc1nc(NS(=O)(=O)c2cc(C)ccc2F)no1`
1.84

---

species: Homo sapiens; assay: To identify inhibition of the IFN signalling (Jak-Stat) pathway via expression of an eGFP reporter gene under the control of an IFN-stimulated response element (ISRE) containing MxA promoter.; type: functional; parameters: scale not given: direction of the effect not stated beside the values; conditions: 30 µM
readout.name: Percent Effect (%)
Just the number please, in %, no unit attached.

Below are worked cases with known answers.
molecule	Percent Effect (%)
CCc1nc(CN2CCCN(c3ncnc4ccccc34)CC2)no1	74.7
Cc1ccccc1CC1(CO)CCCN(c2ncccc2C#N)C1 (stereo not given)	27.8
c1ccc(CCN2CCOC(Cn3cccn3)C2)nc1 (stereo not given)	5.5
COc1ccccc1C1CNC(=O)c2nc(-c3cnn(C)c3)[nH]c2C1 (stereo not given)	5.8

Lab note: next molecule to report on.
Look up Percent Effect for this molecule: `CC(C)COCc1cncc2c1CCN(Cc1cnn(C)c1)C2`
-12.6

---

Here the recorded Percent Effect is given for each entry.
molecular target: Chromo domain-containing protein 1 (Saccharomyces cerevisiae (strain ATCC 204508 / S288c) (Baker's yeast)) (UniProt P32657); assay: ScCHD-1 Enzyme Inhibition Assay; type: functional; set-up: scale not given: in the data most compounds retested in dose-response had high values; settings: 30 µM
Sequence (P32657 whole entry, the tested form may be a part): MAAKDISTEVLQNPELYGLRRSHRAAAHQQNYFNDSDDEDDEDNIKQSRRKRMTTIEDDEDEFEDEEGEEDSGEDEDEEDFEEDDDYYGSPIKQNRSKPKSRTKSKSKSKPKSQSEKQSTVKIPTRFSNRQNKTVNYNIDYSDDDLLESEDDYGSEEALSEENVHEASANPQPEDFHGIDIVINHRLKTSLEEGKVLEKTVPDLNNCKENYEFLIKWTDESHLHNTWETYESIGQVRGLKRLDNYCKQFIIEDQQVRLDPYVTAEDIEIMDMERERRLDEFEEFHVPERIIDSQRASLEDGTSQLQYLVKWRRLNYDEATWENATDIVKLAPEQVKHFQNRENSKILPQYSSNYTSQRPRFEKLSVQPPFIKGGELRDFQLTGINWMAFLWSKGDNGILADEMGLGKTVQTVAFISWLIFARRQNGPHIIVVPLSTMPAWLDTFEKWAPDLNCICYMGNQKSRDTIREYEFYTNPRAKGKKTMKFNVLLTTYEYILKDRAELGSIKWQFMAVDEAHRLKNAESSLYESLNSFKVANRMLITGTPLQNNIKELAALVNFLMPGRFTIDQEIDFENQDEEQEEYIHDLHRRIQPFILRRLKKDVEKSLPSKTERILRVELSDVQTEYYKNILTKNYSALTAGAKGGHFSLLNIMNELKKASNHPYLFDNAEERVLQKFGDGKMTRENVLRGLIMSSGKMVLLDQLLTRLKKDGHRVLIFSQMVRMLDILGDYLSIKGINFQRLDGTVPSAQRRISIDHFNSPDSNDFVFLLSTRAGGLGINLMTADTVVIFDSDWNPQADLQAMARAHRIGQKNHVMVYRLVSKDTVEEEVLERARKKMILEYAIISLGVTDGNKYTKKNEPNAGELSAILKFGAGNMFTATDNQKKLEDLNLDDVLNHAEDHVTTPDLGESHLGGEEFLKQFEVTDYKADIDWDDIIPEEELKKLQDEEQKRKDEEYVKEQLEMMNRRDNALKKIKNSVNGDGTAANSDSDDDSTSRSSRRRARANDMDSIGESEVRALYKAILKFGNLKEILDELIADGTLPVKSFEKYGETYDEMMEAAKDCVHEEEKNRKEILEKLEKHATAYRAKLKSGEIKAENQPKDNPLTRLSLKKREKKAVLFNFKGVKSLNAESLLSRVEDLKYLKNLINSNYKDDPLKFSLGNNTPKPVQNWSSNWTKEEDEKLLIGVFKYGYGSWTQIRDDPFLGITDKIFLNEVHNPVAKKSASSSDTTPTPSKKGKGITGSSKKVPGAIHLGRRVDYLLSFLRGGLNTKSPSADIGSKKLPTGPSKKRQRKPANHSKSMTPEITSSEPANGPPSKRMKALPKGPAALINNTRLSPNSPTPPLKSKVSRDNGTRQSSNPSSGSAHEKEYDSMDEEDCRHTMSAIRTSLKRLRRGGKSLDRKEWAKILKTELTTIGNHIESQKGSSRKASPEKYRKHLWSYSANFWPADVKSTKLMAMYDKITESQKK
Just the number please, in %, no unit attached.

molecule	readout.name	observed
CN1C(=O)C[C@@H]2[C@@H]1CCN2S(=O)(=O)Cc1ccccc1	Percent Effect	6.94
O=C1CCC(C(=O)NCc2nncn2-c2ccccc2)CN1 (stereo not given)	Percent Effect	-12.7
COc1ccc(NC(=O)CCC2CCCN(Cc3ncon3)C2)cc1Cl (stereo not given)	Percent Effect	92.7
Cc1cc(S(=O)(=O)N2CCCc3ccc(F)cc32)sc1C(=O)O	Percent Effect	-2.04

Lab note: next molecule to report on.
Look up Percent Effect for this molecule: c1ccc(-n2nnnc2CN2CCCC(Cn3cncn3)C2)cc1 (stereo not given)
-17.9

---

molecular target: Chromo domain-containing protein 1 (Saccharomyces cerevisiae (strain ATCC 204508 / S288c) (Baker's yeast)) (UniProt P32657); experiment: ScCHD-1 Enzyme Inhibition Assay; format: functional; set-up: scale not given: in the data most compounds retested in dose-response had high values; settings: 30 µM
Here the recorded Percent Effect is given for each entry.
Just the number please, in %, no unit attached.

Below are worked cases with known answers.
molecule	observed
CC(c1ccc(Cl)cc1)N1CCN(CCNS(C)(=O)=O)CC1 (stereo not given)	-8.23
CCOCCCNC(=O)c1cn(CC)nc1C	-9.37
CNS(=O)(=O)c1ccc(C(=O)N2CCCC2c2ccccc2)o1 (stereo not given)	1

Look up Percent Effect for this molecule: `CCCNC(=O)N1CCN(Cc2cc(C)no2)CC1`
-7.68

Field entry: `COc1cc2cc(C(=O)O)n(C)c2cc1OC`
-6.18
